target: Genome polyprotein (Coxsackievirus B3 (strain Nancy)); experiment: Inhibition of recombinant Coxsackievirus B3 3C protease expressed in Escherichia coli BL21 (DE3) preincubated for 5 mins followed by addition of NMA-EALFQGPPVK-DNP-rrr-NH2 as substrate measured up to 2 hrs by FRET-based enzyme assay
PARAMETER: IC50

Hello, please tell me recorded IC50 for this one: O=C(CCCc1ccc(F)cc1)N/N=C/c1ccc(O)c(O)c1O
640 nM

* * *

target: Genome polyprotein (Coxsackievirus B3 (strain Nancy)); assay: Inhibition of recombinant Coxsackievirus B3 3C protease expressed in Escherichia coli BL21 (DE3) preincubated for 5 mins followed by addition of NMA-EALFQGPPVK-DNP-rrr-NH2 as substrate measured up to 2 hrs by FRET-based enzyme assay
PARAMETER: pIC50
// pIC50 here means minus log10 of the molar concentration (mol/L)

> print(dat)
                                 compound  parameter  reported.measurement
1  O=C(CCCCc1ccc(O)cc1)NNCc1ccc(O)c(O)c1O      pIC50                  7.15
2         O=C(NNCc1ccc(O)c(O)c1O)c1ccccc1      pIC50                  6.19

Hello, please tell me recorded pIC50 for this one: O=C(N/N=C/c1ccc(O)c(O)c1O)c1ccc(O)cc1
6.49

Hello, please tell me recorded pIC50 for this one: CS(=O)(=O)c1ccc(C(=O)NNCc2ccc(O)c(O)c2O)cc1
6.11

Hello, please tell me recorded pIC50 for this one: O=C(CCCc1ccc(O)cc1)N/N=C/c1ccc(O)c(O)c1O
6.80

Hello, please tell me recorded pIC50 for this one: CCCCC(=O)Oc1c(O)ccc(CNNC(=O)c2ccc(O)cc2)c1O
5.99

Hello, please tell me recorded pIC50 for this one: O=C(CCc1ccc(O)cc1)NNCc1ccc(O)c(O)c1O
7.10

* * *

target: Genome polyprotein (Coxsackievirus B3 (strain Nancy)); test: Inhibition of recombinant Coxsackievirus B3 3C protease expressed in Escherichia coli BL21 (DE3) preincubated for 5 mins followed by addition of NMA-EALFQGPPVK-DNP-rrr-NH2 as substrate measured up to 2 hrs by FRET-based enzyme assay
PARAMETER: pIC50
// pIC50 here means minus log10 of the molar concentration (mol/L)

Hello, please tell me recorded pIC50 for this one: CCCCC(=O)Oc1c(O)ccc(/C=N/NC(=O)CCCCc2ccc(O)cc2)c1O
6.01

Hello, please tell me recorded pIC50 for this one: O=C(CCCCc1ccc(O)cc1)N/N=C/c1ccc(O)c(O)c1O
6.96

Hello, please tell me recorded pIC50 for this one: CC(C)(C)OC(=O)NC(Cc1ccc(F)cc1)C(=O)NNCc1ccc(O)c(O)c1O (stereo not given)
6.11

Hello, please tell me recorded pIC50 for this one: O=C(N/N=C/c1c(O)cc(O)cc1O)c1ccccc1
5.97

* * *

Reported IC50 by item:
target: Genome polyprotein (Coxsackievirus B3 (strain Nancy), UniProt P03313); experiment: Inhibition of recombinant Coxsackievirus B3 3C protease expressed in Escherichia coli BL21 (DE3) preincubated for 5 mins followed by addition of NMA-EALFQGPPVK-DNP-rrr-NH2 as substrate measured up to 2 hrs by FRET-based enzyme assay
Sequence (P03313 1541-1723 limits assumed): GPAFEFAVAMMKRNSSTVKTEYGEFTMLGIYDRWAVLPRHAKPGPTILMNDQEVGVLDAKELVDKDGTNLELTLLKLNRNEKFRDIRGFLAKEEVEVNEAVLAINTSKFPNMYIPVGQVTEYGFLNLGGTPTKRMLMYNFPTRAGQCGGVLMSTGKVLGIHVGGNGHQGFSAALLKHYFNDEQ
Provide the reading as a plain figure in nM.

// below: answered compounds
> print(dat)
                                   compound  reported.measurement
1         O=C(CCc1ccccc1)NNCc1ccc(O)c(O)c1O                   320
2  CC(C)(C)OC(=O)NC(Cc1ccc(O)cc1)C(=O)N/N=C/c1ccc(O)c(O)c1O (stereo unspecified)                   540

Enter recorded IC50 with Genome polyprotein (Coxsackievirus B3 (strain Nancy), UniProt P03313) for O=C(Cc1ccc(O)cc1)N/N=C/c1ccc(O)c(O)c1O here.
180

Enter recorded IC50 with Genome polyprotein (Coxsackievirus B3 (strain Nancy), UniProt P03313) for O=C(NNCc1ccc(O)c(O)c1O)c1ccc(F)cc1 here.
650

Enter recorded IC50 with Genome polyprotein (Coxsackievirus B3 (strain Nancy), UniProt P03313) for O=C(Cc1ccc(O)cc1)NNCc1ccc(O)c(O)c1O here.
110

Enter recorded IC50 with Genome polyprotein (Coxsackievirus B3 (strain Nancy), UniProt P03313) for O=C(CCCCc1ccc(F)cc1)NNCc1ccc(O)c(O)c1O here.
230

Enter recorded IC50 with Genome polyprotein (Coxsackievirus B3 (strain Nancy), UniProt P03313) for O=C(Cc1ccccc1)NNCc1ccc(O)c(O)c1O here.
410

Enter recorded IC50 with Genome polyprotein (Coxsackievirus B3 (strain Nancy), UniProt P03313) for O=C(CCCc1ccc(O)cc1)NNCc1ccc(O)c(O)c1O here.
100

Enter recorded IC50 with Genome polyprotein (Coxsackievirus B3 (strain Nancy), UniProt P03313) for CCCCC(=O)Oc1c(O)ccc(CNNC(=O)CCCCc2ccc(O)cc2)c1O here.
870

Origin of measurements: ChEMBL document CHEMBL3856195
